test system: HepG2 viability, ATP luminescence, 48 h; assay: viability loss in human liver HepG2 cells – cytotoxicity control, dose response (AID 2060596)
Active and inactive are the calls of the source.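 Rule for the calls: active = IC50 at or below about 50119 nM, measured in restricted growth medium; inactive = the rest.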
Possible outcomes: YES for active, NO for inactive

INSERT INTO results (compound, category) VALUES
  ('Cc1cccc(-c2nn(Cc3ccc(C(=O)NCCCO)cc3)c(=O)cc2N2CCCC(CO)C2)c1 (stereo not drawn)', 'NO'),
  ('O=C(NCCCN1CCc2ccccc21)c1ccc2c(=O)n(Cc3ccccn3)cnc2c1', 'NO'),
  ('O=C(Nc1nnc(-c2ccccc2)s1)N1CCCN(c2ncccn2)CC1', 'NO'),
  ('CCN(CC)c1ccc(C(=O)COc2ccc3c(c2)CCNCC3)cc1', 'YES'),
  ('NC(=O)CC1CCN(C(=O)c2sc3sccc3c2Cl)CC1', 'NO'),
  ('O=C(Nc1cccnc1)C1CCN(c2ccc(-c3ccco3)nn2)CC1', 'NO'),
  ('O=C1CCCN1c1ccc(S(=O)(=O)N2CCN(S(=O)(=O)c3ccccc3)CC2)cc1', 'NO'),
  ('CCCOc1cncc(S(=O)(=O)c2ccc3c(c2)CCN(C2CCC2)CC3)c1', 'YES'),
  ('COc1ccc(-c2ccc(CNC(=O)c3cc(C(=O)NC(C)C)ccc3Cl)cc2)cn1', 'NO'),
  ('CCN(C(=O)C=Cc1ccc(S(=O)(=O)N2CCc3ccccc32)cc1)C1CCS(=O)(=O)C1 (stereo not drawn)', 'NO'),
  ('Cn1cccc1C1CCCN1CC(=O)Nc1ccc(S(=O)(=O)N2CCOCC2)cc1 (stereo not drawn)', 'NO'),
  ('COc1ccc2oc(C(=O)NC3CCC(Oc4ncccn4)CC3)cc2c1 (stereo not drawn)', 'NO'),
  ('O=C(CCn1nnc2cc(S(=O)(=O)N3CCCC3)ccc21)N1CCN(c2ccccn2)CC1', 'NO'),
  ('COc1ccc(NC(=O)c2ccc3c(=O)n(Cc4ccccn4)cnc3c2)cc1N1CCN(C)CC1', 'NO'),
  ('Cc1ccc2nc(CCNC(=O)CCS(=O)(=O)c3ccc4c(c3)CC(=O)N4C)[nH]c2c1', 'NO'),
  ('O=C(CCCc1c[nH]c2ccccc12)N1CCN(c2ccc(N3CCOCC3)nn2)CC1', 'NO'),
  ('Cc1cc(Cl)ccc1OCC(=O)N1CCc2c(cnc(C)c2CNC(=O)c2ccc(=O)[nH]n2)C1', 'NO'),
  ('CN(C(=O)C[C@@H]1CCN(C(=O)C2CC2)C1)c1ccc(-c2ccc(C#N)cc2)cc1', 'NO'),
  ('O=C(CCN=C1NS(=O)(=O)c2ccccc21)Nc1ccc(S(=O)(=O)N2CCCC2)cc1', 'NO'),
  ('O=C1CSc2ccc(C(=O)Nc3ccc(-c4nnc5n4CCCCC5)cc3)cc2N1', 'NO'),
  ('O=C(CCCc1ncc(-c2ccccc2)o1)N1CCOC2CCCC21 (stereo not drawn)', 'NO'),
  ('O=C(COc1ccc(Br)cc1F)N1CCN(c2cnccn2)CC1', 'NO'),
  ('CC(C)Oc1ccc(-c2nnc(Oc3cccc4c3CCN(CCC(N)=O)CC4)s2)cc1C#N', 'YES'),
  ('O=C(Nc1ccc(N2CCCC2)nc1)N1CCN(c2cnccn2)CC1', 'NO'),
  ('N#Cc1cccc(NC(=O)CNc2ccccc2C(=O)NC2CC2)c1', 'NO'),
  ('Cc1nn(C2CCS(=O)(=O)C2)c(C)c1CN(C)C(=O)CN1C(=O)NC2(CCCCC2C)C1=O (stereo not drawn)', 'YES'),
  ('N#Cc1c(N)n[nH]c1CCCNC(=O)c1ccc(Cl)c(S(=O)(=O)N2CCCC2)c1', 'NO'),
  ('COc1ccc(C(=O)N2CCN(c3ccc(-n4cccn4)nn3)CC2)cc1OC', 'NO');

---

system: HepG2 viability, ATP luminescence, 48 h; experiment: viability loss in human liver HepG2 cells – cytotoxicity control, dose response (AID 2060596)
Calls of active or inactive are those of the source.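 How the source made its calls: active means IC50 at or below about 50119 nM, measured in restricted growth medium; inactive means the rest.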
Possible outcomes: yes (1) = active, no (0) = inactive

INSERT INTO assay_data (compound, assay_target, category) VALUES
  ('Cc1cc(-c2cnc(N3CCn4c(nnc4C4CC4)C3)nc2-c2ccncc2)on1', 'HepG2 viability, ATP luminescence, 48 h', 'no (0)'),
  ('O=C(/C=C/c1n[nH]c2ccccc12)N1CCN(c2cnccn2)CC1', 'HepG2 viability, ATP luminescence, 48 h', 'no (0)'),
  ('O=C(c1cc2ccccc2[nH]1)N1CCC2(CC(Nc3ccncn3)C2)C1 (stereo not given)', 'HepG2 viability, ATP luminescence, 48 h', 'yes (1)'),
  ('O=C(/C=C/c1n[nH]c2ccccc12)Nc1ccc(C(=O)NCCN2CCOCC2)cc1', 'HepG2 viability, ATP luminescence, 48 h', 'no (0)'),
  ('COc1ccc(N2CCN(C(=O)c3csc(Nc4ccccc4S(C)(=O)=O)n3)CC2)nc1', 'HepG2 viability, ATP luminescence, 48 h', 'no (0)');
